Recorded values, source patent US20090270407A1.

Test system: Septoria nodorum
Test: Test C: wheat glume blotch, preventive spray on wheat seedlings, visual disease rating
Conditions: 200 ppm; 100 = 100 % disease control, 0 = no disease control relative to controls
Would you mind telling me the reported Test C disease control rating of each entry?
Numbers only, in %.

Study these solved cases before continuing.
molecule	Test C disease control rating [%]
COc1ccccc1C1CC(C)(c2cccnc2)ON1C (mixture of isomers) [Compound 100]	0
CN1OC(C)(c2cccnc2)CC1c1ccc(C(C)(C)C)cc1 (racemic) [Compound 8]	40
CN1O[C@@](C)(c2cccnc2)C[C@@H]1c1ccc(Cl)cc1 (relative stereo) [Compound 2]	99
CN1OC(C)(c2cccnc2)CC1c1cccc(Br)c1 (stereo not drawn) [Compound 67]	0
CN1OC(C)(c2cccnc2)CC1c1ccc(Oc2ccc(F)cc2)cc1 (racemic) [Compound 20]	78
CN1OC(C)(c2cccnc2)CC1c1ccc(Oc2ccccc2)cc1 (racemic) [Compound 10]	98
CN1OC(C)(c2cccnc2)CC1c1ccc(-c2ccn(CC(F)(F)F)n2)cc1 (mixture of isomers) [Compound 80]	0
CN1OC(C)(c2cccnc2)CC1c1ccccc1Br (stereo not drawn) [Compound 65]	0

Okay, now this molecule:
Query string: Name the recorded Test C disease control rating for CN1OC(C)(c2cccnc2)CC1c1ccc(F)c(F)c1 (stereo not drawn) [Compound 82] .
Result string: 0
